protocol summary: in vitro
conditions used: human, hela cells, % viability
Lab note: cut-off is 90%. Strictly less in viability at 28.5 h, 10 µM is class 1. Exactly 90% or more is class 0.

Ask: Is viability at 28.5 h, 10 µM of CCC(=O)OC1(C(=O)c2ccc(F)cc2)CCN(CCCC(c2ccc(F)cc2)c2ccc(F)cc2)CC1 [CBK025227C] strictly below 90%?
Reply: class 1

Ask: Is viability at 28.5 h, 10 µM of Cn1c(SCCC(=O)O)nnc1-c1cccnc1 strictly below 90%?
Reply: class 0

Ask: Is viability at 28.5 h, 10 µM of c1ccc(CN2CCN(c3cncc(-c4cccs4)n3)CC2)nc1 strictly below 90%?
Reply: class 0

Ask: Is viability at 28.5 h, 10 µM of CC(=O)Nc1ccc(S(=O)(=O)Nc2ccccc2C(=O)O)cc1 strictly below 90%?
Reply: class 0

Ask: Is viability at 28.5 h, 10 µM of NCCCCCCNc1ncnc2c1ncn2[C@H]1C[C@@H](O)[C@@H](CO)O1 strictly below 90%?
Reply: class 0

Ask: Is viability at 28.5 h, 10 µM of CCCC(=O)CCOC(=O)C1=C(C)OC2C1Nc1cc(F)c(F)cc1N2CC (stereo not shown) strictly below 90%?
Reply: class 0

Ask: Is viability at 28.5 h, 10 µM of CCc1nnc(SC(C)C(=O)N2CCCc3ccccc32)[nH]1 (stereo not shown) strictly below 90%?
Reply: class 1

Ask: Is viability at 28.5 h, 10 µM of COc1cc(C2(O)CCN(Cc3ccccc3)C2)ccc1OCc1ccccc1 (stereo not shown) strictly below 90%?
Reply: class 0

Ask: Is viability at 28.5 h, 10 µM of CCOC(=O)c1cnn2c(O)cc(CN(Cc3cccs3)C3CC3)nc12 strictly below 90%?
Reply: class 0

Ask: Is viability at 28.5 h, 10 µM of COc1cc2c(cc1OC)C1c3ccccc3N(Cc3ccccc3)C(=O)N1CC2 (stereo not shown) strictly below 90%?
Reply: class 1

Ask: Is viability at 28.5 h, 10 µM of O=C(CSc1nc2cc(Cl)ccc2[nH]1)Nc1ccccc1F strictly below 90%?
Reply: class 1
